Quick list: Binding Signal (fold over 6E7 parental antibody) per entry.
# measured on: T1, human TREM2 (human) (UniProt Q9NZC2)
# T1 sequence (looked up): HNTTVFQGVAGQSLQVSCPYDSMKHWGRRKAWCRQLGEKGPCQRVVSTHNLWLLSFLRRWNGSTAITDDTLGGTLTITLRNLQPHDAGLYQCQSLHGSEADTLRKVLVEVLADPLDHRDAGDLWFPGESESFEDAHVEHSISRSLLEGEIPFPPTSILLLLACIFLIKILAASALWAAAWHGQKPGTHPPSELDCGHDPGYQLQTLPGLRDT
# experimental details: 2nd screen, 10 nM Ab
Field: value (include unit after the number)

Examples from the recorded data:
- 6E7 variant V73 (antibody, V domains shown) VH: EVQLVQSGAEVKKPGESLKISCKGSGYSFGSYWIAWVRQMPGKGLEWMGIIYPGDSDTRYSPGFQGQVTISADKSISTAYLQWSSLKASDTAMYFCARGRTFYYDSSDYFDYWGQGTLVTVSS VL: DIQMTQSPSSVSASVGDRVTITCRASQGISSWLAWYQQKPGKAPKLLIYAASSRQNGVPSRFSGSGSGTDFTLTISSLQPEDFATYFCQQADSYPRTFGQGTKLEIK: 5.44 fold
- 6E7 variant V17 (antibody, V domains shown) VH: EVQLVQSGAEVKKPGESLKISCKGSGYSFGSYWIAWVRQMPGKGLEWMGIIYPGDSDTRYSPSFQGQVTISADKSISTAYLQWSSLKASDTAMYFCARSRTFYYDSSDYFDYWGQGTLVTVSS VL: DIQMTQSPSSVSASVGDRVTITCRASQGISSWLAWYQQKPGKAPKLLIYAASSRQNGVPSRFSGSGSGTDFTLTISSLQPEDFATYFCQQADSSPRTFGQGTKLEIK: 5.51 fold

Let us move to another entry and its Binding Signal (fold over 6E7 parental antibody).
Entry under test: 6E7 variant V25 (antibody, V domains shown) VH: EVQLVQSGAEVKKPGESLKISCKGSGYSFGSYWIAWVRQMPGKGLEWMGLIYPGDSDTRYSPSFQGQVTISADKSISTAYLQWSSLKASDTAMYFCARSRTFYYDSSDYFDYWGQGTLVTVSS VL: DIQMTQSPSSVSASVGDRVTITCRASQGISSWLAWYQQKPGKAPKLLIYAASSLANGVPSRFSGSGSGTDFTLTISSLQPEDFATYFCQQADSMPRTFGQGTKLEIK . Its Binding Signal (fold over 6E7 parental antibody) was 4.7 fold
